Every entry's value here was drawn from PubChem BioAssay AID1159580.

experimental.details: chemical genetic growth profiling, strain panel (AID 1159580);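 further: tested at 20 µM; growth read once vehicle control cultures reached saturation at 30 °C; lower values mean less growth of the strain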
test.parameters: S. cerevisiae deletion strains, growth OD, locus YDR162C, strain NBP2, hits give low values
Screen size: about 5,500 compounds; about 2,000 (36%) were called active. Another 18% or so got no clear call; they are omitted. The list shows a part of the results.
hey, just use Satisfied if measured normalized growth is less than 1, otherwise Not satisfied

Below 1 on normalized growth? Entry CCOc1cccc(C(=O)c2ccc(O)c(O)c2O)c1
Satisfied

Below 1 on normalized growth? Entry NC(=O)N1c2ccccc2C=Cc2ccccc21
Not satisfied

Below 1 on normalized growth? Entry O=C(O)c1cc([N+](=O)[O-])ccc1NCCCc1ccccc1
Satisfied
